- study-target: D(3) dopamine receptor (Homo sapiens, UniProt P35462, S196A)
- Sequence (P35462 as listed by the source S196A): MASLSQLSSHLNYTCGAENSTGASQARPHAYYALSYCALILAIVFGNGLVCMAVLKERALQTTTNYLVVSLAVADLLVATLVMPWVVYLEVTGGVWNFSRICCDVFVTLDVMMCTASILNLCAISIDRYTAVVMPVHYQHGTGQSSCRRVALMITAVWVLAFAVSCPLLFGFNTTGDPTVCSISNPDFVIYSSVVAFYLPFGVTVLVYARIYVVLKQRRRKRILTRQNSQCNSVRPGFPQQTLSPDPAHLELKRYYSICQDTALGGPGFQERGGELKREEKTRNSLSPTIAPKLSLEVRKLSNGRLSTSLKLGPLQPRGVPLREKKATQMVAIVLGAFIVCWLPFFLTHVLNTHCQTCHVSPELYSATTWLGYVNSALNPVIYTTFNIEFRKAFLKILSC
- assay: Displacement of [3H]spiperone from human dopamine D3 receptor S5.46A mutant expressed in HEK293 cells after 60 mins
Measured Ki, listed per entry.
observed-property: Ki

1) CCCN(CCCCNC(=O)c1ccc(-c2ccccc2)cc1)[C@H]1CCn2nccc2C1    0.058 nM
2) CCCN(CCCCNC(=O)c1ccc(-c2ccccc2)cc1)[C@@H]1CCn2nccc2C1    15 nM
3) COc1ccccc1N1CCN(CCCCNC(=O)c2ccc(-c3ccccc3)cc2)CC1    0.16 nM
4) CCCN(CCC)[C@H]1CCn2nccc2C1    45 nM

---

- assay: Displacement of [3H]prazosin from adrenergic alpha1 receptor in porcine cerebral cortex after 60 mins
- Format: tissue-based, Sus scrofa
pKi: −log10 of the molar value.
Criterion: pKi meeting or surpassing 7. Met: 1. Not met: 0.

1) CCCN(CCCCNC(=O)c1ccc(-c2ccccc2)cc1)C1CCn2nccc2C1 (racemic)    0
2) CCCN(CCCCNC(=O)c1ccc(-c2ccccc2)cc1)C1CCn2ncc(C=O)c2C1 (configuration not stated)    0
3) CCCN(CCC)[C@H]1CCn2nccc2C1    0
4) CCCN(CCC)[C@@H]1CCn2nccc2C1    0
5) CCCN(CCCCNC(=O)c1ccc(-c2ccccc2)cc1)C1CCn2ncc(Cl)c2C1 (configuration not stated)    0
6) COc1ccccc1N1CCN(CCCCNC(=O)c2ccc(-c3ccccc3)cc2)CC1    1

---

- Species on record: Homo sapiens
- assay: Selectivity ratio of Ki for human dopamine D3 receptor V2.61F mutant to Ki for wild type human dopamine D3 receptor
observed-property: Ratio Ki

1. CCCCC(=O)NCCCCN(CCC)C1Cc2ccccc2C1    17
2. CCCN(CCCCNC(=O)c1ccc(-c2ccccc2)cc1)[C@@H]1CCn2nccc2C1    190
3. CCCN(CCC)[C@H]1CCn2nccc2C1    2.8
4. CCCN(CCCCNC(=O)c1ccccc1)C1Cc2ccccc2C1    93
5. CCCN(CCCCNC(=O)c1ccc(-c2ccccc2)cc1)[C@H]1CCn2nccc2C1    2200
6. CCCN(CCCCNC(C)=O)C1Cc2ccccc2C1    0.8
7. CCCN(CCC)C1Cc2ccccc2C1    1.5

---

Measured Ki, listed per entry.
- study-target: D(3) dopamine receptor (Homo sapiens)
- assay: Displacement of [3H]spiperone from human dopamine D3 receptor expressed in CHO cells after 60 mins
- Type: cell-based
observed-property: Ki (nM)

1. CCCN(CCCCNC(=O)c1ccc(-c2ccccc2)cc1)[C@@H]1CCn2nccc2C1    15
2. CCCN(CCCCNC(=O)c1ccc(-c2ccccc2)cc1)[C@H]1CCn2nccc2C1    0.19
3. CCCN(CCCCNC(=O)c1ccc(-c2ccccc2)cc1)C1CCn2ncc(Cl)c2C1 (centres undefined)    0.59
4. CCCN(CCCCNC(=O)c1ccc(-c2ccccc2)cc1)C1Cc2cccn3ncc(c23)C1 (centres undefined)    0.55
5. CCCN(CCCCNC(=O)c1ccc(-c2ccccc2)cc1)C1CCn2nccc2C1 (racemic)    0.71
6. CCCN(CCC)[C@H]1CCn2nccc2C1    31
7. COc1ccccc1N1CCN(CCCCNC(=O)c2ccc(-c3ccccc3)cc2)CC1    0.22
8. CCCN(CCC)[C@@H]1CCn2nccc2C1    2100
9. CCCN(CCCCNC(=O)c1ccc(-c2ccccc2)cc1)C1CCn2ncc(C=O)c2C1 (centres undefined)    39
